Experimental System: T1, human MSLN-R1-his protein (human, UniProt Q13421 296-390)
T1 construct: Region 1 of human mesothelin, made in HEK293E cells, His-tagged; also called human MSLN-R1 protein; hMSLN-R1-his; not shown: His tag
T1 chain: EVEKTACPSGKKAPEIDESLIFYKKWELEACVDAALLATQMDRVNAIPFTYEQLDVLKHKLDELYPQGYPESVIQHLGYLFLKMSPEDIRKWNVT
Assay Comment: ELISA on coated MSLN-R1; antibody 100 nM
# OD450 per record follows

Binder: S009-F8-32.3 (antibody, human IgG1, kappa, V domains shown) VH: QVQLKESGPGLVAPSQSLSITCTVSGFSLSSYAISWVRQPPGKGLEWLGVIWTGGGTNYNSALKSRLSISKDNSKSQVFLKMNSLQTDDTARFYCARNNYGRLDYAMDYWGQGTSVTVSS VL: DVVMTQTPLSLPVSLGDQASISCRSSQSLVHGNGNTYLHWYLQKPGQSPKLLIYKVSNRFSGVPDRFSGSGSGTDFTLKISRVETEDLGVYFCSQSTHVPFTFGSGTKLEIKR
OD450 [OD450]: 2.81
--
Binder: S009-F8-5.15 (antibody, human IgG1, kappa, V domains shown) VH: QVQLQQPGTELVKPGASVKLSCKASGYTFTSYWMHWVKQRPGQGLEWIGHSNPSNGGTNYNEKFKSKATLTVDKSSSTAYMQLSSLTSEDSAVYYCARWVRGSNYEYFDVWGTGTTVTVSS VL: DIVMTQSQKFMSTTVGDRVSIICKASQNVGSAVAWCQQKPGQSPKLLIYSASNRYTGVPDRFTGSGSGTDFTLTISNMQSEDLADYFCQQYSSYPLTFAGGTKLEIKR
OD450 [OD450]: 2.29
--
Binder: S009-F8-8.22 (antibody, human IgG1, kappa, V domains shown) VH: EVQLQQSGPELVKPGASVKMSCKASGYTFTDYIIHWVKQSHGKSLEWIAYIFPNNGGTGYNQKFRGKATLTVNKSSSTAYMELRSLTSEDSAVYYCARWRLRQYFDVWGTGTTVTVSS VL: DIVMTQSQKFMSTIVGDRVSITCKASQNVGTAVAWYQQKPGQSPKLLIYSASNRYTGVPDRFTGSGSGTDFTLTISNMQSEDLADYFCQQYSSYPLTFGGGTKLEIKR
OD450 [OD450]: 2.63
